Cited source: the supplement of paper PMC7125110

Quick reference: self-cleavage kobs at 10000 uM GlcN6P of the listed items.
B1: glmS ribozyme (parent)
chain: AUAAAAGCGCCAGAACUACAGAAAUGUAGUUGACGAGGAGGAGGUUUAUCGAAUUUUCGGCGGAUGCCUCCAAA

- Variants of: B1
- test.name: self-cleavage kobs at 10000 uM GlcN6P; higher = faster cleavage; RNA array
- test.context: with glucosamine-6-phosphate
Variants at the floor of the assay were thinned out.
Form entry: value (s⁻¹) — number only.

Quick check: self-cleavage kobs at 10000 uM GlcN6P of G7U A53G U69G ?
9.89e-05

And the next one, A15C A64G ?
0.00614

And the next one, G13A U45C ?
2.82e-05

And the next one, G32A C70A ?
5.13e-05

And the next one, U47C C70G ?
0.000256

---
Quick check: self-cleavage kobs at 10000 uM GlcN6P of G13C C67A ?
3.7e-05

And the next one, A14G U45G ?
0.0175

And the next one, G26U U30G C71U ?
0.000403

And the next one, A6G U55G ?
0.000473

And the next one, C50G G66U C67A ?
0.000166

And the next one, C11A A14U C71U ?
4.6e-05

And the next one, U45A U54A ?
0.0819
